These entries and their values trace back to PubChem BioAssay AID1508601.

Please go through the items and note down their p53-positive nuclei, normalised.
TARGET OR TEST SYSTEM: Cellular tumor antigen p53 (Homo sapiens) (UniProt P04637)
Sequence (P04637 whole entry, looked up): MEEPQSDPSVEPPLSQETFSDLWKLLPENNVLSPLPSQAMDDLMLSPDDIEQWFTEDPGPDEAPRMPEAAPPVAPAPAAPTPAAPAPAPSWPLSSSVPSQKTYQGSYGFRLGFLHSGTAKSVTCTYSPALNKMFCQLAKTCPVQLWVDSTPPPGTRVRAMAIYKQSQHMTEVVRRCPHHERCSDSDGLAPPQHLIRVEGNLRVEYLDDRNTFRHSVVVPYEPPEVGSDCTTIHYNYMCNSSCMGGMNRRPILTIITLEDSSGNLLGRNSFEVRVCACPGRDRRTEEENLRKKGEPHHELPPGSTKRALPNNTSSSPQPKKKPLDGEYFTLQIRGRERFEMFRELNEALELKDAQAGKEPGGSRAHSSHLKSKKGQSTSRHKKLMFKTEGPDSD
ASSAY DETAILS: nuclear p53 accumulation, HPV+ cells – imaging, p53-positive nuclei imaging, 24 h, 48 h (AID 1508601)
TEST SETTINGS: 24/48 h, measured here: p53 positive nuclei at 24 h, Library stock concentration: 80 uM, stronger effect = higher value
The whole screen tested about 5,700 compounds, of which about 85 (1%) were called active. The sample as a whole holds a higher share of actives than the screen did.
# unit: % | format: bare number

Problem: Look up p53-positive nuclei, normalised: `CCN1CCN(Cc2ccc(NC(=O)c3ccc(C)c(Oc4ccnc5[nH]ccc45)c3)cc2C(F)(F)F)CC1`
Solution: -0.156

Problem: Do the same for `CS(=O)(=O)N1CCN(Cc2cc3nc(-c4cccc5[nH]ncc45)nc(N4CCOCC4)c3s2)CC1` please
Solution: 0.26

Problem: Do the same for Cc1c(CN2CCN(C(=O)C(C)O)CC2)sc2c(N3CCOCC3)nc(-c3cnc(N)nc3)nc12 (stereo not given) please
Solution: 0.036

Problem: Do the same for `COc1ccc(-c2nc(N3CCOCC3)c3sc(CN(C)c4ncc(C(=O)NO)cn4)cc3n2)cn1` please
Solution: 77.1

Problem: Do the same for `COC(=O)C=CC(=O)N(O)CCCCNCc1ccc(COC(=O)Nc2cccc3ccccc23)cc1` please
Solution: -0.122

Problem: Do the same for O=C(NOCC(O)CO)c1ccc(F)c(F)c1Nc1ccc(I)cc1F (stereo not given) please
Solution: 0.00674

Problem: Do the same for `COc1ccc2nc3ccc(OC)cc3c(SCCCN)c2c1` please
Solution: -0.00591

Problem: Do the same for CC(C)CC(NC(=O)C(O)C(N)Cc1ccccc1)C(=O)O (stereo not given) please
Solution: -0.122

Problem: Do the same for `Cn1cc(CNCC2CCN(c3ncc(C(=O)NO)cn3)CC2)c2ccccc21` please
Solution: 43.9

Problem: Do the same for `OCCCNc1cc(-c2ccnc(Nc3cccc(Cl)c3)n2)ccn1` please
Solution: 23.9
